TARGET OF ASSAY: 3-oxoacyl-[acyl-carrier-protein] synthase 3 (Escherichia coli, UniProt C3TDZ2)
Sequence (C3TDZ2 whole entry): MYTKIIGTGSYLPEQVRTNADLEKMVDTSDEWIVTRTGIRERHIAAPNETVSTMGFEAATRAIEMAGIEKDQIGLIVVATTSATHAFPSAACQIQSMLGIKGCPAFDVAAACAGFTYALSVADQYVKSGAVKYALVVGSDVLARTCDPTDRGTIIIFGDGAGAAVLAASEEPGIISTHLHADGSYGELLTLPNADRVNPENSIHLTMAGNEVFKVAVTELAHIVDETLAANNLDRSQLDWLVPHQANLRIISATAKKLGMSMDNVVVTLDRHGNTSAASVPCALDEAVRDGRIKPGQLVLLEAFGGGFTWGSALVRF
TEST DESCRIPTION: Inhibition of Escherichia coli FabH in presence of radiolabelled substrates and acetyl-coA by enzyme coupled FabD/FabH assay system
PARAMETER MEASURED: IC50 (µM)
Record the value in µM, omitting the unit from your answer.

Input: Determine from records and report IC50 for `Cc1ccc(C(=O)n2c(-c3cn(-c4ccccc4)nc3-c3ccc(C(F)(F)F)cc3)nc3ccccc32)cn1`
Output: 2.05

Input: Let me know recorded IC50 for `Cc1ccc(-c2nn(-c3ccccc3)cc2-c2nc3ccccc3n2C(=O)c2ccccc2C)cc1` , thanks.
Output: 35.4

Input: Consider the compound `O=C(c1ccncc1)n1c(-c2cn(-c3ccccc3)nc2-c2ccc(F)cc2)nc2ccccc21` . State its measured IC50.
Output: 33.9

----------
TARGET OF ASSAY: 3-oxoacyl-[acyl-carrier-protein] synthase 3 (Escherichia coli, UniProt C3TDZ2)
TEST DESCRIPTION: Inhibition of Escherichia coli FabH in presence of radiolabelled substrates and acetyl-coA by enzyme coupled FabD/FabH assay system
PARAMETER MEASURED: pIC50
A value of pIC50 is the negative decimal logarithm of a concentration given in moles per litre.

Solved entries (count: 4):
>  <STRUCTURE AS SMILES>
Cc1ccc(C(=O)n2c(-c3cn(-c4ccccc4)nc3-c3ccc(F)cc3)nc3ccccc32)cc1

>  <pIC50>
4.52

$$$$
>  <STRUCTURE AS SMILES>
Cc1ccc(-c2nn(-c3ccccc3)cc2-c2nc3ccccc3n2C(=O)c2ccc(C)nc2)cc1

>  <pIC50>
4.77

$$$$
>  <STRUCTURE AS SMILES>
O=C(c1ccc(Cl)cc1)n1c(-c2cn(-c3ccccc3)nc2-c2ccc(C(F)(F)F)cc2)nc2ccccc21

>  <pIC50>
4.40

$$$$
>  <STRUCTURE AS SMILES>
Cc1ccc(-c2nn(-c3ccccc3)cc2-c2nc3ccccc3n2C(=O)c2ccc(Cl)cc2)cc1

>  <pIC50>
4.42

$$$$

Input: Provide pIC50 value for the following compound: `Cc1ccccc1C(=O)n1c(-c2cn(-c3ccccc3)nc2-c2ccc(C(F)(F)F)cc2)nc2ccccc21`
Output: 4.44

Input: Specify reported pIC50 for the compound shown: `Cc1ccc(-c2nn(-c3ccccc3)cc2-c2nc3ccccc3n2C(=O)c2ccccc2)cc1`
Output: 4.55

Input: Give the reported value of pIC50 for this record: `Cc1cccc(C(=O)n2c(-c3cn(-c4ccccc4)nc3-c3ccc(F)cc3)nc3ccccc32)c1`
Output: 4.47

Input: Please give measured pIC50 of the following entry: `Cc1ccc(-c2nn(-c3ccccc3)cc2-c2nc3ccccc3n2C(=O)c2cccnc2)cc1`
Output: 4.74

Input: Quick one: give measured pIC50 for `Cc1ccccc1C(=O)n1c(-c2cn(-c3ccccc3)nc2-c2ccc(F)cc2)nc2ccccc21`
Output: 4.43
